tested on: MS2 coat protein; test: apparent KD of MS2 coat protein; designed switch direction (-1 OFF switch, 1 ON switch): -1; higher = weaker reporter binding; details: input ligand: none
// label = fulfilled if apparent KD of MS2 coat protein is not less than 20 nM, otherwise not fulfilled

AAGAUGUCAGGAUAUUAGUAGUAAAUAAAUAAAAUUAUUACUGAGAAGGGACAUGAGGAUCACCCAUGUGCCUU [Salish 062 v10] (Eterna round: R97, puzzle: Exclusion 4)	not fulfilled

INPUT: API: above_or_equal(metric=apparent KD of MS2 coat protein, cutoff=20 nM) for item UAAUGUGCGAGAGGAUAUCGUGUACAAAGUACACGAGAAGGCUUCACAUGAGGAUCACCCAUGUAUCGAGGUGAAACACCUUGA [Omei Exc(NG)1 Bv3] (Eterna round: R96, puzzle: Exclusion NG 1)
OUTPUT: fulfilled

INPUT: API: above_or_equal(metric=apparent KD of MS2 coat protein, cutoff=20 nM) for item UGAUCUAGCGGAGGAUAUACAUGAGGAUCACCCAUGUAGAUAACAUGACCGUAGUCGUGUAUUGUGUAGAAGGCCGCUAGAUCU [JL ENG2 3.66] (Eterna round: R96, puzzle: Exclusion NG 2)
OUTPUT: not fulfilled

INPUT: API: above_or_equal(metric=apparent KD of MS2 coat protein, cutoff=20 nM) for item GUUGUUUAUGUAGGAUAUGCCUGGCGUGCCUUAGCAGAAGGACAUGAGGAUCACCCAUGUAUUGCGGUCUGCGUUCAGAUCGCU [salish99_ExNG1_r4_021] (Eterna round: R96, puzzle: Exclusion NG 1)
OUTPUT: fulfilled

----------
Consider the following sequences; for each one, report its apparent KD of K4 kissing-loop reporter.
test system: K4 kissing-loop RNA reporter; experiment: apparent KD of K4 kissing-loop reporter; higher = weaker reporter binding; settings: Eterna round: R107; input ligand: FMN 200 uM;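 note: bound reporter read as fluorescence of individual clusters on recovered sequencing chips by microscopy, with normalized cluster intensities fitted with a binding model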
Quick note: unit goes after the number.

Take a look at these entries with their results.
AGUGAUGUGGGAAGGAGCGGUAUAUGAGUUCAGUGAUGUUGAAGUGAUGCUGUAGUGAUGUGCCAGGUAGGUCGCCUAGAUGUUA [whbob_Ex_Arginine_B_2th165]	374 nM
AAACGUUGGUGCGAUACCAGCUUGCGCGGAAAACGCGCUACUGGAGUGAUGUUCCUAAAUAGCCCUUGGCAGCGCACCGACGAAA [MAT - Same State Theophlline B - Mod of Eli - D9]	193 nM

Okay, next one:
INPUT: Reported apparent KD of K4 kissing-loop reporter for AUAAUUAUAUAGAAAUAUAUAAUUAUAUAACGAGGACCGGUACGGCCGCCACUCGUGCCGGGCAUAAAAUGAGUGAUGUUCAUGU [KL-XTryp-A7 #analogue] : what is it?
OUTPUT: 205 nM

----------
tested on: MS2 coat protein; test: apparent KD of MS2 coat protein; designed switch direction (-1 OFF switch, 1 ON switch): -1; higher = weaker reporter binding; conditions: input ligand: microRNA oligo, concentration not stated
MEASURED_ENDPOINT: apparent KD of MS2 coat protein (nM)
Answers are plain numbers, in nM.

Take a look at these entries with their results.
UCUCGCAGGCAAGGAUAUCCUACAUUGUUCUGGCCCGGGCAUGCUACAUGAGGAUCACCCAUGUGGGAGAAGGUGCGCCACGGC [Design 32] (Eterna round: R96, puzzle: Exclusion NG 2)	36
ACAUGUCAUCGAGGAUAUUGUACACAUGAGGAUCACCCAUGUAUUCGGUUGCUCUAGCAUGAGUUCGAGAAGGCGAUGUACAUU [Ex NG2 #83] (Eterna round: R96, puzzle: Exclusion NG 2)	134
UUAAAUCAUGUAGGAUAUGCGUGGCGAAGCUAUGCAGAAGGACAUGAGGAUCACCCAUGUUCUAGCGUCUGCGUACAGAUGCUA [Mat - Exclusion NG 1 - Mod of JL - D76] (Eterna round: R96, puzzle: Exclusion NG 1)	26.9

Okay, next one:
INPUT: Reported apparent KD of MS2 coat protein for CUAAAUCAUGUAGGAUAUGCGUAGCAAAGCUAUGCAGAAGGACAUGAGGAUCACCCAUGUCAUUCCGUCUGGAGACAGACGGGA [Mat - Exclusion NG 1 - Mod of JL - D55] (Eterna round: R96, puzzle: Exclusion NG 1) : what is it?
OUTPUT: 21.6
